- TGT: urokinase (Homo sapiens, UniProt P00749)
- ASSAY_REMARKS: Fluorescence assay of AMC release from peptide linker by urokinase
- Assay type: biochemical
- CONDITION_PARAMETERS: urokinase 0.1 ug/ml; peptide 5 uM
Peptide text beside a SMILES is read from it. * marks the point of attachment. AMC = Cc1cc(=O)oc2cc(N*)ccc12; Boc = CC(C)(C)OC(=O)*
PROPERTY_NAME: Cleavage Rates, Urokinase (nM/min)

P: Cc1cc(=O)oc2cc(NC(=O)[C@H](CCCNC(=N)N)NC(=O)CNC(=O)[C@@H](N)CCC(=O)O)ccc12 [Glu-Gly-Arg-AMC] (H-Glu-Gly-Arg-{AMC})
Q: Cc1cc(=O)oc2cc(NC(=O)[C@H](CCCNC(=N)N)NC(=O)[C@H](CCCNC(=N)N)NC(=O)[C@H](CCC(=O)O)NC(=O)OC(C)(C)C)ccc12 [Boc-Glu-Arg-Arg-AMC] (Boc-Glu-Arg-Arg-{AMC})
Query block: Hi, I'm comparing two records. Which one has the lower Cleavage Rates, Urokinase, P or Q ? Please respond with the label that marks your chosen entry.
Result block: Q

----------
- TGT: urokinase (Homo sapiens)
- ASSAY_REMARKS: Fluorescence assay of AMC release from peptide linker by urokinase
- Assay type: biochemical
- CONDITION_PARAMETERS: urokinase 0.1 ug/ml; peptide 5 uM
Peptide text beside a SMILES is read from it. * marks the point of attachment. AMC = Cc1cc(=O)oc2cc(N*)ccc12; Boc = CC(C)(C)OC(=O)*
PROPERTY_NAME: Cleavage Rates, Urokinase (nM/min)

So for Cc1cc(=O)oc2cc(NC(=O)[C@H](CCCCN)NC(=O)[C@H](CCCCN)NC(=O)[C@@H](N)CCC(=O)O)ccc12 [Glu-Lys-Lys-AMC] (H-Glu-Lys-Lys-{AMC}) , the logged Cleavage Rates, Urokinase turned out to be 0

Sample Cc1cc(=O)oc2cc(NC(=O)[C@H](CCCNC(=N)N)NC(=O)CNC(=O)[C@H](CC(C)C)NC(=O)OC(C)(C)C)ccc12 [Boc-Leu-Gly-Arg-AMC, Boc-leu-gly-arg-7-amino-4-methylcoumarin] (Boc-Leu-Gly-Arg-{AMC}) ; Cleavage Rates, Urokinase observed: 3.7

Form field Cleavage Rates, Urokinase, entry Cc1cc(=O)oc2cc(NC(=O)[C@H](CCCNC(=N)N)NC(=O)CNC(=O)[C@@H](NC(=O)OC(C)(C)C)C(C)C)ccc12 [Boc-Val-Gly-Arg-AMC] (Boc-Val-Gly-Arg-{AMC}) : 2.8

I: Cc1cc(=O)oc2cc(NC(=O)[C@H](CCCNC(=N)N)NC(=O)[C@H](CO)NC(=O)[C@H](Cc3ccccc3)NC(=O)OC(C)(C)C)ccc12 [Boc-Phe-Ser-Arg-AMC] (Boc-Phe-Ser-Arg-{AMC})
II: Cc1cc(=O)oc2cc(NC(=O)[C@H](CCCNC(=N)N)NC(=O)CNC(=O)CN)ccc12 [Gly--Gly--Arg--AMC, Gly-Gly-Arg-AMC]
Query block: // select label with min value of measured Cleavage Rates, Urokinase from [ I , II ] Could you answer with the label of the item you picked?
Result block: I
(I: 0.044 nM/min, II: 27 nM/min)
